SYSTEM TESTED: Monoamine transporters; Norepinephrine & serotonin (Rattus norvegicus) (UniProt P31652+Q9WTR4)
ASSAY REMARKS: Ratio between Serotonin transporter and Norepinephrine transporter uptake
Format: protein assay
Field: label. Allowed values: Condition met (Ratio < 1) or Condition not met (Ratio >= 1).

Previously resolved entries follow.
MOLECULE	LABEL VALUE
OC1COC(C(c2ccccc2)c2ccccc2)CC1NCc1ccccc1 (single isomer, unassigned)	Condition not met
O[C@@H]1CO[C@H](C(c2ccccc2)c2ccccc2)C[C@H]1NCc1ccccc1	Condition not met
COc1ccc(CN[C@@H]2CO[C@H](C(c3ccccc3)c3ccccc3)C[C@H]2O)c(OC)c1	Condition met
OC1CC(C(c2ccccc2)c2ccccc2)OCC1NCc1ccc(F)cc1 (single isomer, unassigned)	Condition not met
COc1ccc(CNC2CC(C(c3ccccc3)c3ccccc3)OCC2O)cc1 (single isomer, unassigned)	Condition not met

I wonder whether O[C@@H]1C[C@@H](C(c2ccccc2)c2ccccc2)OC[C@H]1NCCc1ccc(F)cc1 has Ratio below 1. Can you tell? Condition not met
